Molecular target: Mu-type opioid receptor (Cavia porcellus)
Sequence (P97266 whole entry): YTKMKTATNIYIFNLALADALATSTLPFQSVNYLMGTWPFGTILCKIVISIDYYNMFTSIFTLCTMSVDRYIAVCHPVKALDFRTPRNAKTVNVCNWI
Assay: Inhibitory potency against Opioid receptor mu 1 in longitudinal muscle preparation of guinea pig ileum
Type: tissue-based
Consider the following substances and their measured IC50 readings.
Write the value in nM as a bare number.

H-YAGFMT-OH: 240

Here is the next item to consider.
Provide only the value of recorded IC50 for H-YGGFMT-OH 380

====

Target: Mu-type opioid receptor (Cavia porcellus)
Consider the following molecules and their measured IC50 readings.
Write the value in nM as a bare number.

Consider the following illustrative entries.
C[C@H](NC(=O)[C@@H](N)Cc1ccc(O)cc1)C(=O)NCC(=O)N(C)[C@@H](Cc1ccccc1)C(=O)N[C@@H](CC[S+](C)[O-])C(=O)O (stereo not given in full): 7.2
CC(C)C[C@@H](NC(=O)[C@H](Cc1ccccc1)NC(=O)CNC(=O)[C@@H](C)NC(=O)[C@@H](N)Cc1ccc(O)cc1)C(=O)O: 47.8
CSCC[C@H](NC(=O)[C@H](Cc1ccccc1)NC(=O)CNC(=O)CNC(=O)[C@@H](N)Cc1ccc(O)cc1)C(=O)O: 200
CC(C)C[C@H](NC(=O)[C@H](Cc1ccccc1)NC(=O)CNC(=O)[C@H](CO)NC(=O)[C@@H](N)Cc1ccc(O)cc1)C(=O)N[C@H](C(=O)O)[C@@H](C)O: 360

Here is the next item to consider.
Provide only the value of recorded IC50 for CC(C)CC(C)NC(=O)CNC(=O)[C@H](C)NC(=O)[C@@H](N)Cc1ccc(O)cc1 (stereo not given in full) 182

====

Target: Delta-type opioid receptor (Mus musculus, UniProt P32300)
Sequence (P32300 whole entry): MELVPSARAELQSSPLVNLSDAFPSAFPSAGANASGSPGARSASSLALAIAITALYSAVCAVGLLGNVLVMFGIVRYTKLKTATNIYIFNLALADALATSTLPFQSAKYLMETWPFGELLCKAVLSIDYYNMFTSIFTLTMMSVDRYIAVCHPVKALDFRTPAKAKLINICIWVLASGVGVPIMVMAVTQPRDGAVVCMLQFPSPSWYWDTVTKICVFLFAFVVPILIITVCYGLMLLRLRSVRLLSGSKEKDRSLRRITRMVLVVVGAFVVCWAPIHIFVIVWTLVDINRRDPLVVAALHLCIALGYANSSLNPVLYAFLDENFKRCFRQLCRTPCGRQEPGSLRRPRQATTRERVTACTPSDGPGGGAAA
Experiment: Inhibitory potency against delta Opioid receptor delta 1 in longitudinal muscle preparation of mouse vas deferens
EXPERIMENTAL READOUT: IC50 (nM)
Write the value in nM as a bare number.

H-YAGFMT-OH: 1.09

Here is the next item to consider.
Provide only the value of recorded IC50 for H-YGGFMT-OH 6.1
